MEASURED ON: E. coli DnaE (DNA polymerase III α-subunit from Escherichia coli) (Escherichia coli, UniProt P10443)
Construct: EcDnaE (E. coli DnaE residues 1-1160); 6xHis (N); made in house; host or cells: E. coli BL21(DE3)
Sequence (P10443 whole entry, the tested form may be a part): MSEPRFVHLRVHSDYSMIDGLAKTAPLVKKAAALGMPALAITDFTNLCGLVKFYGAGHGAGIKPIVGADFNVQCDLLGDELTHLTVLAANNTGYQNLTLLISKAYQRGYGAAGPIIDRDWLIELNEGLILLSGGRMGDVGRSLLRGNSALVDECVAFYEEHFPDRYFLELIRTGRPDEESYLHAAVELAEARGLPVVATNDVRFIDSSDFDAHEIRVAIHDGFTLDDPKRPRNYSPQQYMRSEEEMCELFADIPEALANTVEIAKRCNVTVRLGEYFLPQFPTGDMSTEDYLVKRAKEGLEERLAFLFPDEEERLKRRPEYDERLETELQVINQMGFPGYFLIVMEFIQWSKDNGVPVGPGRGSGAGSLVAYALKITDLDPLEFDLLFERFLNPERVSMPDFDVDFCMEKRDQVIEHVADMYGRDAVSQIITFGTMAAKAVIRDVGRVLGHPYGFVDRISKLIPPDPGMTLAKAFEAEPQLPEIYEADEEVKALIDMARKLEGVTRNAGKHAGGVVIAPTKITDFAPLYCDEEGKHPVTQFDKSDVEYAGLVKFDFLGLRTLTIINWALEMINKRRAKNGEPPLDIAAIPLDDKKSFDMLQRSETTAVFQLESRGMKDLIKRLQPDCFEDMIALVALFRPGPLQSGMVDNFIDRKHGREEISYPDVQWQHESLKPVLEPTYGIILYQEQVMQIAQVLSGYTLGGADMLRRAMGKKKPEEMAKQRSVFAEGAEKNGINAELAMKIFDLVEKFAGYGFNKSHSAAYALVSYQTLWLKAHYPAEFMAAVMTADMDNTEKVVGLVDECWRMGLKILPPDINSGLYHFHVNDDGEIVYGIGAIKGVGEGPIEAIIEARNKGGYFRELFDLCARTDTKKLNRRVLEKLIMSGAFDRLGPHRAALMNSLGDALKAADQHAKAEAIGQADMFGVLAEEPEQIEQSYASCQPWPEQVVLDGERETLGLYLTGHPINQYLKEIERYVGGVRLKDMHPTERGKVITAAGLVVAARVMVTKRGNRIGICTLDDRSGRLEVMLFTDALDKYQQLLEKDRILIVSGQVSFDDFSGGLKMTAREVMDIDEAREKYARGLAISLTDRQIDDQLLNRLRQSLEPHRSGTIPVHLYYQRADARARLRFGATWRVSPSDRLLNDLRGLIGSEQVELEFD
PROCEDURE DETAILS: In vitro DnaE single enzyme assay (E. coli)
Type: biochemical
APPLIED CONDITIONS: read-out: E. coli DnaE IC50 (converted)

{"COMPOUND STRUCTURE": "CO[C@H]1C[C@H]2C=CC3C4[C@H](O)[C@@H](C)[C@@H](OC(=O)c5ccc[nH]5)[C@@H]3O[C@]42/C(C)=C/[C@@H](C)[C@@H]([C@@H](C)OC(=O)C(=O)OCc2cncn2C)OC1=O.O=C(O)C(F)(F)F", "UNIT SYMBOL": "µM", "IC50": 3.27}
{"COMPOUND STRUCTURE": "CO[C@H]1C[C@H]2C=C[C@H]3[C@H]4O[C@]2(/C(C)=C/[C@H](C)[C@@H](c2ccccc2)OC1=O)[C@@H]3[C@H](O)[C@@H](C)[C@H]4OC(=O)c1ccc[nH]1", "UNIT SYMBOL": "µM", "IC50": 73}

###

MEASURED ON: E. coli DnaE (DNA polymerase III α-subunit from Escherichia coli) (Escherichia coli, UniProt P10443)
Construct: EcDnaE (E. coli DnaE residues 1-1160); 6xHis (N); made in house; host or cells: E. coli BL21(DE3)
PROCEDURE DETAILS: In vitro DnaE single enzyme assay (E. coli)
Type: biochemical
APPLIED CONDITIONS: read-out: E. coli DnaE IC50 (converted)
In this section, each of the compounds is paired with its reported IC50.

{"COMPOUND": "CO[C@H]1C[C@H]2C=CC3C4[C@H](O)[C@@H](C)[C@@H](OC(=O)c5ccc[nH]5)[C@@H]3O[C@]42/C(C)=C/[C@@H](C)[C@@H]([C@@H](C)OC(=O)C(=O)OCc2ccccc2)OC1=O", "RESULT OPERATOR": "=", "IC50, µM": 2.95}
{"COMPOUND": "CCCCCCCCNC(=O)O[C@H](C)[C@H]1OC(=O)[C@@H](OC)C[C@H]2C=C[C@H]3[C@H]4O[C@]2(/C(C)=C/[C@H]1C)[C@@H]3[C@H](O)[C@@H](C)[C@H]4OC(=O)c1ccc[nH]1", "RESULT OPERATOR": "=", "IC50, µM": 16.4}
{"COMPOUND": "CO[C@H]1C[C@H]2C=C[C@H]3[C@H]4O[C@]2(/C(C)=C/[C@@H](C)[C@@H]([C@@H](C)O)OC1=O)[C@@H]3[C@H](O)[C@@H](C)[C@H]4OC(N)=O", "RESULT OPERATOR": "=", "IC50, µM": 81.6}
{"COMPOUND": "CO[C@H]1C[C@H]2C=CC3C4[C@H](O)[C@@H](C)[C@@H](OC(=O)c5ccc[nH]5)[C@@H]3O[C@]42/C(C)=C/[C@@H](C)[C@@H]([C@@H](C)OC(=O)C(=O)OCCN2CCN(C)CC2)OC1=O.O=C(O)C(F)(F)F", "RESULT OPERATOR": "=", "IC50, µM": 4.95}
{"COMPOUND": "CO[C@H]1CC2C=C[C@H]3[C@H]4O[C@]2(/C(C)=C/[C@@H](C)[C@@H](C(C)OC(C)=O)OC1=O)[C@@H]3[C@H](O)[C@@H](C)[C@H]4OC(=O)c1ccc[nH]1 (stereo partly drawn)", "RESULT OPERATOR": "=", "IC50, µM": 80.7}
{"COMPOUND": "CO[C@H]1C[C@H]2C=C[C@H]3[C@H]4O[C@]2(/C(C)=C/[C@@H](C)[C@@H]([C@@H](C)OC(=O)N2CCOCC2)OC1=O)[C@@H]3[C@H](O)[C@@H](C)[C@H]4OC(=O)c1ccc[nH]1", "RESULT OPERATOR": ">", "IC50, µM": 159}
{"COMPOUND": "CO[C@H]1C[C@H]2C=CC3C4[C@H](O)[C@@H](C)[C@@H](OC(=O)c5ccc[nH]5)[C@@H]3O[C@]42/C(C)=C/[C@@H](C)[C@@H]([C@@H](C)OC(=O)C(=O)OCCN2CCCC2)OC1=O.O=C(O)C(F)(F)F", "RESULT OPERATOR": "=", "IC50, µM": 3.76}
{"COMPOUND": "CC[C@@H]1OC(=O)[C@@H](OC)C[C@H]2C=C[C@H]3[C@H]4O[C@]2(/C(C)=C/[C@H]1C)[C@@H]3[C@H](O)[C@@H](C)[C@H]4OC(=O)c1ccc[nH]1", "RESULT OPERATOR": ">", "IC50, µM": 200}
{"COMPOUND": "CO[C@H]1C[C@H]2C=C[C@H]3[C@H]4O[C@]2(/C(C)=C/[C@@H](C)[C@@H](c2ccccc2)OC1=O)[C@@H]3[C@H](O)[C@@H](C)[C@H]4OC(=O)c1ccc[nH]1", "RESULT OPERATOR": "=", "IC50, µM": 14.6}

###

MEASURED ON: S. aureus DnaE (DNA polymerase III α-subunit homolog from Staphylococcus aureus) (Staphylococcus aureus)
Construct: SaDnaE (S. aureus DnaE residues 1-1065); 6xHis (N); made in house; host or cells: E. coli BL21-AI
PROCEDURE DETAILS: biochemical
Type: biochemical
APPLIED CONDITIONS: read-out: S. aureus DnaE IC50 (converted)
In this section, each of the molecules is paired with its reported IC50.

{"MOLECULE": "CO[C@H]1C[C@H]2[C@@H]3O[C@@H]3[C@H]3[C@H]4O[C@]2(/C(C)=C/[C@@H](C)[C@@H]([C@@H](C)O)OC1=O)[C@@H]3[C@H](O)[C@@H](C)[C@H]4OC(=O)c1ccc[nH]1", "RESULT OPERATOR": "=", "IC50, µM": 4.14}
{"MOLECULE": "CO[C@H]1CC2C=C[C@H]3[C@H]4O[C@]2(/C(C)=C/[C@@H](C)[C@@H]([C@@H](C)OC(=O)NC(CO)(CO)CO)OC1=O)[C@@H]3[C@H](O)[C@@H](C)[C@H]4OC(=O)c1ccc[nH]1 (some centres unmarked)", "RESULT OPERATOR": "<", "IC50, µM": 0.00905}

###

MEASURED ON: S. aureus DnaE (DNA polymerase III α-subunit homolog from Staphylococcus aureus) (Staphylococcus aureus, UniProt Q5HF71)
Construct: SaDnaE (S. aureus DnaE residues 1-1065); 6xHis (N); made in house; host or cells: E. coli BL21-AI
Sequence (Q5HF71 whole entry, the tested form may be a part): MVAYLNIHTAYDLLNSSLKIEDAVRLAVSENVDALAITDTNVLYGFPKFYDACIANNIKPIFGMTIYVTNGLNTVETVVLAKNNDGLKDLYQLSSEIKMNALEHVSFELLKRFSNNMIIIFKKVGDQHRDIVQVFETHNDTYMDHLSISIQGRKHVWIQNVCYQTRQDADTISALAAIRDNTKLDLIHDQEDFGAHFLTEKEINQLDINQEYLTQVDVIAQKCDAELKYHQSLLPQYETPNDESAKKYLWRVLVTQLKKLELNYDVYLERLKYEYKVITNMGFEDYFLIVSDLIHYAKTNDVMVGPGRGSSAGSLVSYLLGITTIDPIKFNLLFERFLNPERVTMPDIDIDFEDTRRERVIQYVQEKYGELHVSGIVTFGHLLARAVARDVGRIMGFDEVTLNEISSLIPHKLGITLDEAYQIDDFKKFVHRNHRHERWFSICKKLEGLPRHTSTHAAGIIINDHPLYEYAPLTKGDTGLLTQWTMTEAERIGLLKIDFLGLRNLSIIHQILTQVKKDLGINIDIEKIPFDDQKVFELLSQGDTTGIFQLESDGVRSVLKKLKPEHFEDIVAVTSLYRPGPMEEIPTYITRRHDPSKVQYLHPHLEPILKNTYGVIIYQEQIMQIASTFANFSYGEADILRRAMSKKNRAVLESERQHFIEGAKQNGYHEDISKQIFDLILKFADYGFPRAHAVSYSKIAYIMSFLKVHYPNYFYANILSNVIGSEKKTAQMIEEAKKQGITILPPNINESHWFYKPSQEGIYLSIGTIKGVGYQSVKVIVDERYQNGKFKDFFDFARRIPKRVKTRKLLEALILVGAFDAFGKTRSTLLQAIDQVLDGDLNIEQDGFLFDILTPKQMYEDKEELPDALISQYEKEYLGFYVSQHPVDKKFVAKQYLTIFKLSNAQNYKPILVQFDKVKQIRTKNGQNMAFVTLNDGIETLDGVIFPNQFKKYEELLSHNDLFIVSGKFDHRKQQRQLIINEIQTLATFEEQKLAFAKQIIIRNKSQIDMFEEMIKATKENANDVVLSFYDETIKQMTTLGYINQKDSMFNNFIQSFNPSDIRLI
PROCEDURE DETAILS: biochemical
Format: biochemical
APPLIED CONDITIONS: S. aureus DnaE IC50
pIC50: −log10 of the molar value.

{"COMPOUND": "C=CC[C@@H]1OC(=O)[C@@H](OC)C[C@H]2C=C[C@H]3[C@H]4O[C@]2(/C(C)=C/[C@H]1C)[C@@H]3[C@H](O)[C@@H](C)[C@H]4OC(=O)c1ccc[nH]1", "pIC50": 7.06}
{"COMPOUND": "CO[C@H]1C[C@H]2C=C[C@H]3[C@H]4O[C@]2(/C(C)=C/[C@@H](C)[C@@H]([C@@H](C)O)OC1=O)[C@@H]3[C@H](OC(N)=O)[C@@H](C)[C@H]4O", "pIC50": 6.41}
{"COMPOUND": "C/C1=C\\[C@@H](C)[C@@H](C(C)O)OC(=O)C(O)CC2C=C[C@H]3[C@H]4O[C@@]12[C@@H]3[C@H](O)[C@@H](C)[C@H]4OC(=O)c1ccc[nH]1 (stereo partly drawn)", "pIC50": 7.70}

###

In this section, each of the compounds is paired with its reported IC50.
MEASURED ON: E. coli DnaE (DNA polymerase III α-subunit from Escherichia coli) (Escherichia coli, UniProt P10443)
Construct: EcDnaE (E. coli DnaE residues 1-1160); 6xHis (N); made in house; host or cells: E. coli BL21(DE3)
PROCEDURE DETAILS: In vitro DnaE single enzyme assay (E. coli)
Format: biochemical
APPLIED CONDITIONS: read-out: E. coli DnaE IC50 (converted)

{"COMPOUND": "CO[C@H]1C[C@H]2C=C[C@@H]3[C@H]4[C@H](O)[C@@H](C)C(=O)[C@@H]3O[C@]42/C(C)=C/[C@@H](C)[C@@H]([C@@H](C)O)OC1=O", "UNIT SYMBOL": "µM", "RESULT OPERATOR": ">", "IC50": 238}
{"COMPOUND": "CO[C@H]1CC2C=C[C@H]3[C@H]4O[C@]2(/C(C)=C/[C@@H](C)[C@@H]([C@@H](C)OC(=O)C[n+]2ccc(C(N)=O)cc2)OC1=O)[C@@H]3[C@H](O)[C@@H](C)[C@H]4OC(=O)c1ccc[nH]1 (stereo partly shown)", "UNIT SYMBOL": "µM", "RESULT OPERATOR": "=", "IC50": 13.3}
{"COMPOUND": "CO[C@H]1C[C@H]2C=C[C@H]3[C@H]4O[C@]2(/C(C)=C/[C@@H](C)[C@@H]([C@@H](C)OC(=O)OCCO)OC1=O)[C@@H]3[C@H](O)[C@@H](C)[C@H]4OC(=O)c1ccc[nH]1", "UNIT SYMBOL": "µM", "RESULT OPERATOR": "=", "IC50": 116}
{"COMPOUND": "CO[C@H]1C[C@H]2[C@@H](O)C[C@H]3[C@H]4O[C@]2(/C(C)=C/[C@@H](C)[C@@H]([C@@H](C)O)OC1=O)[C@@H]3[C@H](O)[C@@H](C)[C@H]4OC(=O)c1ccc[nH]1", "UNIT SYMBOL": "µM", "RESULT OPERATOR": ">", "IC50": 187}
